# test system: Histone acetyltransferase p300 (Homo sapiens)
# Sequence (Q09472 whole entry, the tested form may be a part): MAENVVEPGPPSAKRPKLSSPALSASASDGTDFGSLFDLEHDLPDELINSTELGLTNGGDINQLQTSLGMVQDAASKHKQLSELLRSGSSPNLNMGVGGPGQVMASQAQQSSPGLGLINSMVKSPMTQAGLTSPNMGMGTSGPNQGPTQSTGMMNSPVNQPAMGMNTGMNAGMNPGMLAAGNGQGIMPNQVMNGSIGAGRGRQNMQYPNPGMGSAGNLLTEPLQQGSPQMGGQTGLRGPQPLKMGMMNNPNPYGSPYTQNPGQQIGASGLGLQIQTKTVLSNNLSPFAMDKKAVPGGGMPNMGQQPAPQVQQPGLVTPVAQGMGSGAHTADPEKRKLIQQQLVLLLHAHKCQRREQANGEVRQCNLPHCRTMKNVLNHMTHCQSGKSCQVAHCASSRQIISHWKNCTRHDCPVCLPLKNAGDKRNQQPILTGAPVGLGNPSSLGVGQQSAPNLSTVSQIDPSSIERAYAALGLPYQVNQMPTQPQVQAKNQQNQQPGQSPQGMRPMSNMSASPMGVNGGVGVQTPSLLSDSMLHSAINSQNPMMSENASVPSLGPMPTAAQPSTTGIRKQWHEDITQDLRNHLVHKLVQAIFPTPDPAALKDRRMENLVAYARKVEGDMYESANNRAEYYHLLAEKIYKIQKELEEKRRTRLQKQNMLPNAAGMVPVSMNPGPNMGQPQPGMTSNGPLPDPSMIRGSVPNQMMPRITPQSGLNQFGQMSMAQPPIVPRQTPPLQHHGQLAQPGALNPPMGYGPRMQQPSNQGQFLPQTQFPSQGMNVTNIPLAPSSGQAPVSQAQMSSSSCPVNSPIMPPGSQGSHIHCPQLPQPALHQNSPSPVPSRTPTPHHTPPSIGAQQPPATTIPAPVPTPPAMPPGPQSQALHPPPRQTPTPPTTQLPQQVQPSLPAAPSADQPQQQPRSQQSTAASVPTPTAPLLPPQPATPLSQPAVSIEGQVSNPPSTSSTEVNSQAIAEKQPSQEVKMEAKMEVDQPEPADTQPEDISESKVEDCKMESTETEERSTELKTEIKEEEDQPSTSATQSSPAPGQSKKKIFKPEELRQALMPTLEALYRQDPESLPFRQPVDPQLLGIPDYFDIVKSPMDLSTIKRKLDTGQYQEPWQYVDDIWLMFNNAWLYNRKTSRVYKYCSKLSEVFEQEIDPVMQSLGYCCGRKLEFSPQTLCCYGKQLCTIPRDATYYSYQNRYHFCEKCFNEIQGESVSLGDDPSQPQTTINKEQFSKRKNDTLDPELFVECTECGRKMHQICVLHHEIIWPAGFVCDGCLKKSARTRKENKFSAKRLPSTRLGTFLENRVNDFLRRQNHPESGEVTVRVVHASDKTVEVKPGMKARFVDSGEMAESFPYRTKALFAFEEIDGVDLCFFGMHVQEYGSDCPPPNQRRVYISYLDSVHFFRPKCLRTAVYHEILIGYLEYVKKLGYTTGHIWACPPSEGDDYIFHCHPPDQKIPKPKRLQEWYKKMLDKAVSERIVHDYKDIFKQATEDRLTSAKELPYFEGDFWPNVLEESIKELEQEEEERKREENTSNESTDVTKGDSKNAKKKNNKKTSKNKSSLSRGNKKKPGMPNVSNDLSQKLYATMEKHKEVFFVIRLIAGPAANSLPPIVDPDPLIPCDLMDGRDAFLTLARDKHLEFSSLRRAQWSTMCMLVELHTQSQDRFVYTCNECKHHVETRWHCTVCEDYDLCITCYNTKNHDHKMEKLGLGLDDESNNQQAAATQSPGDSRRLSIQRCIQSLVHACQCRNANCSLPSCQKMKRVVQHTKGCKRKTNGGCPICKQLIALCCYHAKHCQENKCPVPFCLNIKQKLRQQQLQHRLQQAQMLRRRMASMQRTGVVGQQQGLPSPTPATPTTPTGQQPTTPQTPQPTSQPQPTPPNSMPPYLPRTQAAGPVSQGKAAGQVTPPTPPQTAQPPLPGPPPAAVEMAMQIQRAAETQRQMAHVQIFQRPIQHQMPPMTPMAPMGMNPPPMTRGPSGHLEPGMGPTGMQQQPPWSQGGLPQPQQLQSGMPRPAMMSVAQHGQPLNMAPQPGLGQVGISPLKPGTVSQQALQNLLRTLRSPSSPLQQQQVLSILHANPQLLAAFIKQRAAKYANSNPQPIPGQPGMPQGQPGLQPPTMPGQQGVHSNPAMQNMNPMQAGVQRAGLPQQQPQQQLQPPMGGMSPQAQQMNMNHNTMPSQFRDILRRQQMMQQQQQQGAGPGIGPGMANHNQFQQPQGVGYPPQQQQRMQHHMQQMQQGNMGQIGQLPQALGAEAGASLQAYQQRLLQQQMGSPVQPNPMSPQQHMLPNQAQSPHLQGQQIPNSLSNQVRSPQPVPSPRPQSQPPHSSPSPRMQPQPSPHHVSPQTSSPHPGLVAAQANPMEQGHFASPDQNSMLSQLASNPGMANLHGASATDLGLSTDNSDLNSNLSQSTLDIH
# assay summary: Inhibition of human recombinant C-terminal GST-tagged p300 (1195 to 1673 residues) expressed in competent Escherichia coli DH5alpha cells using histone substrate after 30 mins by scintillation counting method in presence of [3H]acetyl-CoA
test readout: IC50 (nM)

* N=C(N)NCCC[C@@H]1NC(=O)/C(=C/c2ccc(O)c(OCC[C@H](NC(=O)C[C@](O)(CC(=O)O)C(=O)O)C(=O)O)c2)NC1=O | 22
* CC(=O)N[C@@H](CCCCNC(=O)CSCCNC(=O)CCNC(=O)[C@H](O)C(C)(C)COP(=O)(O)OP(=O)(O)OC[C@H]1O[C@@H](n2cnc3c(N)ncnc32)[C@H](O)[C@@H]1OP(=O)(O)O)C(N)=O | 3.2
* N=C(N)NCCC[C@@H]1NC(=O)/C(=C/c2ccc(O)c(OCC[C@H](NC(=O)C[C@](O)(CC(=O)N[C@@H](CC(=O)O)C(=O)O)C(=O)O)C(=O)O)c2)NC1=O | 11
